Molecular target: TR (Leishmania infantum)
Construct: made in house
Sequence (A4HSF7 1-491): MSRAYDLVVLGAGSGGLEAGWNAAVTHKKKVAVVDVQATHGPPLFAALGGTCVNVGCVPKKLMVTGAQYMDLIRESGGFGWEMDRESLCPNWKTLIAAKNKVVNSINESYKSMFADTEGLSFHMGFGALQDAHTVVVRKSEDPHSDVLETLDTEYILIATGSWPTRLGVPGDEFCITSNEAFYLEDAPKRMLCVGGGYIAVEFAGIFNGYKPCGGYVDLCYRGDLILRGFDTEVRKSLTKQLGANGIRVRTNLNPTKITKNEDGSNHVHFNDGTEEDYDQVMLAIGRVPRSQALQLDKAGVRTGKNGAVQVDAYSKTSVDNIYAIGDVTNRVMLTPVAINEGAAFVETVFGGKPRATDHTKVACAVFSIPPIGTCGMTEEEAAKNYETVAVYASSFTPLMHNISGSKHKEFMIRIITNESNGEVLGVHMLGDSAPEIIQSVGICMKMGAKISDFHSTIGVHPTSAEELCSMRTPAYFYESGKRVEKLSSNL
Experiment: Binding assay by SPR
Conditions: steady state; read-out: steady state calculated Kd
READOUT_TYPE: Kd (µM)
The response must be a number in µM with no trailing unit.

Incoming: Which Kd value belongs to "CCN(CC)CCOC(=O)c1ccc(NCCC(=O)c2ccc([N+](=O)[O-])cc2)cc1" ?
Outgoing: 28.3
